- Test system: U87MG
- protocol_details: CellTiter-Glo cell proliferation inhibition, U87MG
- Format: cell-based
- particulars: Homo sapiens, U-87 MG; U87MG (glioblastoma cell line), 72 hours; read-out: Example IC50 (µM) U87MG
readout_name: IC50 (µM)
Give bare numbers, in µM.

O=C(Nc1ccc(-c2csc(CO)c2)cc1)C(=O)Nc1ccc(-c2cc3cc(F)c(-c4nnn[nH]4)cc3n2C2CCC2)cc1 [Example 1]; 0.276

Now for another entry.
Short answer on U87MG for O=C(Nc1ccc(-c2cc3cc(F)c(-c4nnn[nH]4)cc3n2C2CCC2)cc1)C(=O)Nc1ccc(N2CCC3(CCC(O)C3)CC2)cc1 (centres unmarked) [Example 100] , IC50: 0.075

* * *

- target_system: UniProtKB O95278
- Sequence (O95278 1-331): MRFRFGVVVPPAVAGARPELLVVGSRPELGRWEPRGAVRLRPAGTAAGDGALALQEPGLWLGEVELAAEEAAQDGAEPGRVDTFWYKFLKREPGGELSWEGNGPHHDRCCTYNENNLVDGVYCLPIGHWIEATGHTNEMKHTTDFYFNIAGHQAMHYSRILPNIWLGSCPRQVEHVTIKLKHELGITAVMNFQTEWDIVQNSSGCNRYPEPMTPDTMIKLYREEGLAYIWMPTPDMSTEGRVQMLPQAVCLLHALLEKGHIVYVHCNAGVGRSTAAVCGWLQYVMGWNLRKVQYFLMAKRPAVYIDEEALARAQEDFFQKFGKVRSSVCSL
Task for the reader: assign each of the following compounds its reported IC50.

Example results:
Cn1cc(-c2ccc(NC(=O)C(=O)Nc3ccc(-c4cc5cc(F)c(-c6nnc(C(F)(F)F)[nH]6)cc5n4C4CCC4)cc3)cc2)cn1; > 100 µM
O=C(Nc1ccc(-c2ccsc2)cc1)C(=O)Nc1ccc(-c2cc3ccc(-c4nnn[nH]4)nc3n2C2CCC2)cc1; > 20 µM
O=C(Nc1ccc(-c2oc3cc(F)c(-c4nnn[nH]4)cc3c2C2CCC2)cc1)C(=O)Nc1ccc(N2CCC3(CCOC3)CC2)cc1; > 100 µM

Now for another entry.
Given item CC1(n2c(-c3ccc(NC(=O)C(=O)Nc4ccc(N5CCC6(CCOC6)CC5)cc4)cc3)cc3cc(F)c(-c4nnn[nH]4)cc32)CCC1 , the value recorded as its IC50 is > 25 µM

* * *

Task for the reader: assign each of the following compounds its reported IC50.
- target_system: SHP2 enzyme (catalytic domain, amino acid sequence 224-528) (Homo sapiens, UniProt Q06124)
- Construct: purchased GenScript
- Sequence (Q06124 224-528): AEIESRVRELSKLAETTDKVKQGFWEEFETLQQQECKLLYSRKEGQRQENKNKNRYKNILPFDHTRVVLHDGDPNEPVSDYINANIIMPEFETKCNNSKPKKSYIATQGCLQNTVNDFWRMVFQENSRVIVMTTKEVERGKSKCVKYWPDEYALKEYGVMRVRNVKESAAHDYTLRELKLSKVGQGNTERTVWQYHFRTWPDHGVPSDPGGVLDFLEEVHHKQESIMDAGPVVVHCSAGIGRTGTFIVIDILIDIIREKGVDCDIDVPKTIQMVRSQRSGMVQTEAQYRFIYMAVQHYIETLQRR
- protocol_details: SHP2 enzyme inhibition assay (DiFMUP substrate, fluorescence)
- Format: biochemical
- particulars: SHP2 catalytic domain, DiFMUP substrate, 30 min pre-incubation; read-out: S HP2 I C50
Give bare numbers, in µM.

Example results:
O=C(Nc1ccc(-c2cc3cc(F)c(-c4nnn[nH]4)cc3n2C2CCC2)cc1)C(=O)Nc1ccc(N2CCC(F)(CO)CC2)cc1 [Example 45]; 0.055
CC1(CO)CCN(c2ccc(NC(=O)C(=O)Nc3ccc(-c4cc5cc(F)c(-c6nnn[nH]6)cc5n4C4(C)CCC4)cc3)cc2)CC1 [Example 41]; 0.063
O=C(Nc1ccc(-c2cc3cc(F)c(-c4nnn[nH]4)cc3n2C2CCC2)cc1)C(=O)Nc1ccc(N2CCC(CO)C2)cc1 (stereo not drawn) [Example 12]; 0.048
N#CCc1cc(-c2ccc(NC(=O)C(=O)Nc3ccc(-c4cc5cc(F)c(-c6nnn[nH]6)cc5n4C4CCC4)cc3)cc2)cs1 [Example 2]; 0.064

For each of the items listed, what is its IC50?
1. CC(C)(O)CC1CCN(c2ccc(NC(=O)C(=O)Nc3ccc(-c4cc5cc(F)c(-c6nnn[nH]6)cc5n4C4CCC4)cc3)cc2)CC1 [Example 27]
2. CC1(n2c(-c3ccc(NC(=O)C(=O)Nc4ccc(-c5cnn(C6COC6)c5)cc4)cc3)cc3cc(F)c(-c4nnn[nH]4)cc32)CC1 [Example 6]
3. CC1(O)CC2(CCN(c3ccc(NC(=O)C(=O)Nc4ccc(-c5cc6cc(F)c(-c7nnn[nH]7)cc6n5C5CCC5)cc4)cc3)C2)C1 (stereo not drawn) [Example 91]
4. CC1(n2c(-c3ccc(NC(=O)C(=O)Nc4ccc(N5CCC(C6COC6)CC5)cc4)cc3)cc3cc(F)c(-c4nnn[nH]4)cc32)CCC1 [Example 21]

[A]
0.111
0.073
0.093
0.068

* * *

Parameter 'readout' = IC50; parameter 'system' = FAP1 (Homo sapiens, UniProt Q12923).
Sequence (Q12923 2163-2477): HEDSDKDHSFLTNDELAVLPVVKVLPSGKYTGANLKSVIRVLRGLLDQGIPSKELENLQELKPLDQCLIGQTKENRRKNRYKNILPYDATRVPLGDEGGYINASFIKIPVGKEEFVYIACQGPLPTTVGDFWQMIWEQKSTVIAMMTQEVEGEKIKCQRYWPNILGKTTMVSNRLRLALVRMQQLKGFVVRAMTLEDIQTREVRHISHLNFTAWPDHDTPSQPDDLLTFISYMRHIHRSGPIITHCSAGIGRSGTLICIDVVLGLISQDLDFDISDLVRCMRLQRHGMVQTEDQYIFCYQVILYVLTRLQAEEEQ
Answers are plain numbers, in nM.

CC1(n2c(-c3ccc(NC(=O)C(=O)Nc4ccc(N5CCC6(CCOC6)CC5)cc4)cc3)cc3cc(F)c(-c4nnn[nH]4)cc32)CCC1; 560

For each of the items listed, what is its IC50?
1. O=C(Nc1ccc(-c2cc3cc(F)c(-c4nnn[nH]4)cc3n2C2CCC2)cc1)C(=O)Nc1ccc(N2CCC3(CCOC3)CC2)cc1
2. O=C(Nc1ccc(-c2cc3cc(F)c(-c4nnn[nH]4)cc3n2C2CCC2)cc1)C(=O)Nc1ccc(N2CC3COCC3C2)cc1 (stereo not shown)

[A]
1. 2340
2. 1900

Given item O=C(Nc1ccc(-c2ccsc2)cc1)C(=O)Nc1ccc(-c2cc3cnc(-c4nnn[nH]4)nc3n2C2CCC2)cc1 , the value recorded as its IC50 is 11000

* * *

Task for the reader: assign each of the following molecules its reported IC50PTP/IC50SHP2 LYP.
- target_system: LYP (Homo sapiens, UniProt Q9Y2R2)
- Construct: made in house; host or cells: E. coli
- Sequence (Q9Y2R2 whole entry, species assumed): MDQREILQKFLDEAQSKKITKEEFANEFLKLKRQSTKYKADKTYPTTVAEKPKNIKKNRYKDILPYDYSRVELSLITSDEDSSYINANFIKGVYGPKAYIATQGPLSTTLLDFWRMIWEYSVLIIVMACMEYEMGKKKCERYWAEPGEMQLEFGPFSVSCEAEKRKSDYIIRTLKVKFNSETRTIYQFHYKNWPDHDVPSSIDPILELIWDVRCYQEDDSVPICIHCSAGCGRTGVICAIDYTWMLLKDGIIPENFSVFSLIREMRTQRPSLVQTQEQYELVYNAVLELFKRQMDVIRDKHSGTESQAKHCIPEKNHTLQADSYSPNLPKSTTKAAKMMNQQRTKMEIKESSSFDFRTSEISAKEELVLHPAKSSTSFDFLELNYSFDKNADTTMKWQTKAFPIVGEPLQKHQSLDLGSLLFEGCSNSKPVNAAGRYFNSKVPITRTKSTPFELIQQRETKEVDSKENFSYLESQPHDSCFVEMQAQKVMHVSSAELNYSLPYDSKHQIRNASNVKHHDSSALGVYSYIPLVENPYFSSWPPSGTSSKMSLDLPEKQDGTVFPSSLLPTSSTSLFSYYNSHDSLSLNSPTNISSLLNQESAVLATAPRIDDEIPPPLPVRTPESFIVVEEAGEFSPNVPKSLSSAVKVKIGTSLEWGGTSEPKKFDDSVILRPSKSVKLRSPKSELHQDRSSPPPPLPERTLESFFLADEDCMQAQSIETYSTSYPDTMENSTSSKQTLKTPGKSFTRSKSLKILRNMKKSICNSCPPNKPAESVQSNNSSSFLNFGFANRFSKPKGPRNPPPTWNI
- protocol_details: Tyrosine phosphatase selectivity (pNPP substrate), LYP
- Assay type: biochemical
- particulars: selectivity ratio LYP over SHP2

Example results:
CC1(n2c(-c3ccc(NC(=O)C(=O)Nc4ccc(N5CCC6(CCOC6)CC5)cc4)cc3)cc3cc(F)c(-c4nnn[nH]4)cc32)CCC1; 32.1
O=C(Nc1ccc(-c2cc3cc(F)c(-c4nnn[nH]4)cc3n2C2CCC2)cc1)C(=O)Nc1ccc(N2CC3COCC3C2)cc1 (stereo not shown); 1.3
O=C(Nc1ccc(-c2oc3cc(F)c(-c4nnn[nH]4)cc3c2C2CCC2)cc1)C(=O)Nc1ccc(N2CCC3(CCOC3)CC2)cc1; 49.0

Now for another entry.
Given item O=C(Nc1ccc(-c2cc3cc(F)c(-c4nnn[nH]4)cc3n2C2CCC2)cc1)C(=O)Nc1ccc(N2CCOCC2)cc1 , the value recorded as its IC50PTP/IC50SHP2 LYP is 3.0

* * *

- target_system: HePTP (Homo sapiens, UniProt P35236)
- Sequence (P35236 1-360): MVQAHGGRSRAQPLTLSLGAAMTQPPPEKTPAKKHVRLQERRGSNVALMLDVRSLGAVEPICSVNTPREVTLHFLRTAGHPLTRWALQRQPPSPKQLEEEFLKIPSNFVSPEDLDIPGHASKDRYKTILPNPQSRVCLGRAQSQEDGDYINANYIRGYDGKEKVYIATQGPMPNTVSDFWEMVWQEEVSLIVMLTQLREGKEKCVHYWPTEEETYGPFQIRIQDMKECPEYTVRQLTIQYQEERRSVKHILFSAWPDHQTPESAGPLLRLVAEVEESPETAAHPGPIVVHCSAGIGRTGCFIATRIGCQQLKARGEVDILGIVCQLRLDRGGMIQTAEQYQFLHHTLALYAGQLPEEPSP
Task for the reader: assign each of the following molecules its reported pIC50.
One number for each entry, as −log10 of the molar value.

O=C(Nc1ccc(-c2oc3cc(F)c(-c4nnn[nH]4)cc3c2C2CCC2)cc1)C(=O)Nc1ccc(N2CCC3(CCOC3)CC2)cc1; 4.44

Now for another entry.
Given item O=C(Nc1ccc(-c2ccsc2)cc1)C(=O)Nc1ccc(-c2cc3cnc(-c4nnn[nH]4)nc3n2C2CCC2)cc1 , the value recorded as its pIC50 is 5.21

* * *

- Tested on: KYSE520
- protocol_details: CellTiter-Glo cell proliferation inhibition, KYSE520
- Type: cell-based, human
- particulars: Homo sapiens, KYSE-520; KYSE520 cells, 120 hours, CellTiter-Glo
readout_name: IC50
Write the quantity with the unit trailing the number.

For each of the items listed, what is its IC50?
1. O=C(Nc1ccc(-c2cc3cc(F)c(-c4nnn[nH]4)cc3n2C2CCC2)cc1)C(=O)Nc1ccc(N2CCC(C(O)C(F)(F)F)CC2)cc1 (centres unmarked)
2. CC1(O)CC2(CCN(c3ccc(NC(=O)C(=O)Nc4ccc(-c5cc6cc(F)c(-c7nnn[nH]7)cc6n5C5(C)CCC5)cc4)cc3)CC2)C1
3. CC1(n2c(-c3ccc(NC(=O)C(=O)Nc4ccc(N5CCC6(CCCOC6)CC5)cc4)cc3)cc3cc(F)c(-c4nnn[nH]4)cc32)CCC1
4. CC1(CO)CCN(c2ccc(NC(=O)C(=O)Nc3ccc(-c4cc5cc(F)c(-c6nnn[nH]6)cc5n4C4CCC4)cc3)cc2)CC1
5. CC1(O)CC2(CCN(c3ccc(NC(=O)C(=O)Nc4ccc(-c5cc6cc(F)c(-c7nnn[nH]7)cc6n5C5CCC5)cc4)cc3)C2)C1 (centres unmarked)
6. CC(C)(O)C1CC2(CCN(c3ccc(NC(=O)C(=O)Nc4ccc(-c5cc6cc(F)c(-c7nnn[nH]7)cc6n5C5CCC5)cc4)cc3)CC2)C1
7. O=C(Nc1ccc(-c2ccsc2)cc1)C(=O)Nc1ccc(-c2oc3cc(F)c(-c4nnn[nH]4)cc3c2C2CCC2)cc1
8. CC(C)(O)C1CCN(c2ccc(NC(=O)C(=O)Nc3ccc(-c4cc5cc(F)c(-c6nnn[nH]6)cc5n4Cc4ccccc4)cc3)cc2)CC1

[A]
["0.182 µM", "0.113 µM", "0.103 µM", "0.168 µM", "0.101 µM", "0.195 µM", "0.422 µM", "0.12 µM"]
